- Test system: T1, TRCW5 antigen (CD3δε-Fc-Avi) (biotinylated (site not stated))
- T1 construct: also called recombinant CD3
- T1 sequence (chain, as listed by the source mutant limits assumed): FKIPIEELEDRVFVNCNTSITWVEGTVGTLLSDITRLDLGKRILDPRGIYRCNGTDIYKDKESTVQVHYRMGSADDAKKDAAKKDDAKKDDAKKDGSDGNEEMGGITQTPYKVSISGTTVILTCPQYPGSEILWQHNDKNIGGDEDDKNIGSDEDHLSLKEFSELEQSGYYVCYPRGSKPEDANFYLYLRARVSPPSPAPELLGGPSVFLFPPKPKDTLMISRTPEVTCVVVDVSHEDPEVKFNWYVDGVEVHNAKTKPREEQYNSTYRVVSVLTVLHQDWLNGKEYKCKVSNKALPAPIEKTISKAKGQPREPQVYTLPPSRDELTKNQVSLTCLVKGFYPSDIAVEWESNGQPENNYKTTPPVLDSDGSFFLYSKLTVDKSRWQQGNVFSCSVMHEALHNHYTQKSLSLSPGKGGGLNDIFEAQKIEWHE
- Assay protocol: binding after heat
Quantity name: % Retained 65° C. (%)
Report only the number, with the unit % understood.

# Binder, Quantity name, Numeric readout
data = [
    ("CD3B2089 (scFv) scFv: QVQLVQSGAEVKKPGSSVKVSCKASGYTFTRSTMHWVRQAPGQGLEWMGYINPSSAYTNYAQKFQGRVTLTADKSTSTAYMELSSLRSEDTAVYYCASPQVHYDYNGFPYWGQGTLVTVSSGGSEGKSSGSGSESKSTGGSEIVLTQSPATLSASPGERVTLSCSASSSVSYMNWYQQKPGQAPRRWIYDSSKLASGVPARFSGSGSGRDYTLTISSLEPEDFAVYYCQQWSRNPPTFGGGTKVEIK", "% Retained 65° C.", 15.1),
]

// next item, % Retained 65° C. requested
# input Look up % Retained 65° C. of CD3B2089 N106E (scFv) scFv: QVQLVQSGAEVKKPGSSVKVSCKASGYTFTRSTMHWVRQAPGQGLEWMGYINPSSAYTNYAQKFQGRVTLTADKSTSTAYMELSSLRSEDTAVYYCASPQVHYDYEGFPYWGQGTLVTVSSGGSEGKSSGSGSESKSTGGSEIVLTQSPATLSASPGERVTLSCSASSSVSYMNWYQQKPGQAPRRWIYDSSKLASGVPARFSGSGSGRDYTLTISSLEPEDFAVYYCQQWSRNPPTFGGGTKVEIK and report it.
# output 33.2
